# TARGET_OR_TEST_SYSTEM: T1, recombinant human LAG-3-his protein (Novoprotein) (human, UniProt P18627 23-450)
# T1 construct: Bought; also called huLAG-3; not shown: His tag
# T1 sequence (looked up): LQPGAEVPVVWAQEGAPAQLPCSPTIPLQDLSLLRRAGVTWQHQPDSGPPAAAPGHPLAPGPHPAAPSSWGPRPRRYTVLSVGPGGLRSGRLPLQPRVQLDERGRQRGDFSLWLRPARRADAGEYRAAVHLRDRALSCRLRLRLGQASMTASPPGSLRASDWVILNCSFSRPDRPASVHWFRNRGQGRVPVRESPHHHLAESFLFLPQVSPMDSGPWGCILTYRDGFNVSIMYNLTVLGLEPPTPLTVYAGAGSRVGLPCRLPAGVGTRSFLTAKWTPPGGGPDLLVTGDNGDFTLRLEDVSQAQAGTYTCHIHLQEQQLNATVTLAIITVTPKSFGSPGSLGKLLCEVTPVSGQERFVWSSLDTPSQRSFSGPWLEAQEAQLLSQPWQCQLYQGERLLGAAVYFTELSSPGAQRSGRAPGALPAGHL
# PROTOCOL_DETAILS: BLI Octet, Ab on AHC sensor, huLAG-3-his; test group 2
PROPERTY_MEASURED: koff (s⁻¹)
Your answer should be a plain number; it is taken to be in s⁻¹.

>>> observed_value("mAb747c (antibody, V domains shown, also called mAb717c) VH: EVQLQQSGAELVRPGASVKLSCTASDFNIKDDYMHWVKQRPEQGLDWIGWIVPENGNTEYASKFQGKATITADTSSNTAYLQLSSLTSEDTAVYYCTVYGDYWGQGTTLTVSS VL: DIQMTQSPSSLSASLGERVSLNCRASQEISGYLSWLQQKPDGTIKRLIYAASTLDSGVPKRFSGSRSGSDYSLTISSLESEDFAAYYCLQYASYPLTFGAGTKLELK")
0.00163
>>> observed_value("D1-70-IgG (antibody, V domains shown, human IgG1/kappa constant domains) VH: EVQLVQSGAEVKKPGASVKVSCKASGFNIKDDYMHWVRQAPGQGLEWIGWIVPRNGNTMYASKFQGRVTITADTSINTAYMELSRLRSDDTAVYYCTVYGDYWGQGTTVTVSS VL: DIQMTQSPSSLSASVGDRVTINCRASQEISGYLSWLQQKPEGTIKRLIYAASTLDLGVPSRFSGSRSGSDYTLTISSLQPEDFATYYCLQYASYPLTFGGGTKVEIK")
0.0026

Read the next record carefully.
Query block: Please report koff for the following binder: HumAb747-42 (antibody, human IgG1, V domains shown, humanized mAb747; human IgG1 and human kappa constant domains) VH: EVQLVQSGAEVKKPGASVKVSCKASDFNIKDDYMHWVRQAPGQGLEWIGWIVPENGNTEYASKFQGKATITADTSINTAYMELSRLRSDDTAVYYCTVYGDYWGQGTTVTVSS VL: DIQMTQSPSSLSASVGDRVTINCRASQEISGYLSWLQQKPEGTIKRLIYAASTLDSGVPSRFSGSRSGSDYTLTISSLQPEDFATYYCLQYASYPLTFGGGTKVEIK
Result block: 0.00428
